Data provenance is patent US20110046107A1.

Please provide measured MIC90 for the entries that follow.
test system: penicillin-sensitive streptococcus pneumoniae (PSSP); assay: In vitro antibacterial activity, agar dilution method (clinical isolates); type: cell-based; conditions: clinically isolated strains, Gram-positive, read-out: MIC90 S. pneumoniae PSSP
Text: […]
Give a bare numeral; the unit µg/mL is implied.

Provide one value: measured MIC90 of C[C@@H](O)[C@H]1C(=O)N2C(C(=O)O)=C(SC3CN(S(=O)(=O)NCC(N)=O)C3)[C@H](C)[C@H]12 [Compound 10]
0.008

Provide one value: measured MIC90 of C[C@@H](O)[C@H]1C(=O)N2C(C(=O)O)=C(SC3CN=CN(S(N)(=O)=O)C3)[C@H](C)[C@H]12 (stereo partly drawn) [Compound 4]
0.016

Provide one value: measured MIC90 of C[C@@H](O)[C@H]1C(=O)N2C(C(=O)O)=C(S[C@@H]3CN[C@H](CNS(N)(=O)=O)C3)[C@H](C)[C@H]12 [doripenem, Doripenem, reference compound]
0.016
